Target: T1, monkey LAG-3 on cells (HEK293-cLAG-3 stable cell line) (monkey, UniProt P18627 24-525 (human entry))
T1 construct: Full-length monkey (Chinese monkey) LAG-3 gene expressed on HEK293 cells
T1 chain: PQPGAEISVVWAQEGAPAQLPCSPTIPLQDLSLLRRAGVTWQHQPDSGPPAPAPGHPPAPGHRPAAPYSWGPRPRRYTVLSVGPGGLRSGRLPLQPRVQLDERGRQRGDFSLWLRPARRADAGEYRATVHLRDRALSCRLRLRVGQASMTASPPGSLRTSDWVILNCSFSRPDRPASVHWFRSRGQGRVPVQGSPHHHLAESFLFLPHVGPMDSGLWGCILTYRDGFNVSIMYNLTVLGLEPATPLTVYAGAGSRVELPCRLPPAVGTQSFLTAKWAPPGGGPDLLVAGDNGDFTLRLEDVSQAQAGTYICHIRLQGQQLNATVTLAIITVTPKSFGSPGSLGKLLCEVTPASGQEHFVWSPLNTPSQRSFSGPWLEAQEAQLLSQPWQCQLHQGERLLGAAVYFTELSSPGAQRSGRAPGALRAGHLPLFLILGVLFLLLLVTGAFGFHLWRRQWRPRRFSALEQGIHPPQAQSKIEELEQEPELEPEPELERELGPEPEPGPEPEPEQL
Test: FACS, HEK293-cLAG-3, antibody 40.000 nM
// NO strictly below 70 in Mean fluorescence intensity; YES otherwise

binder | answer_label
105F1E10 mouse-human chimeric antibody (antibody, V domains shown, also called mAb009-105F1E10) VH: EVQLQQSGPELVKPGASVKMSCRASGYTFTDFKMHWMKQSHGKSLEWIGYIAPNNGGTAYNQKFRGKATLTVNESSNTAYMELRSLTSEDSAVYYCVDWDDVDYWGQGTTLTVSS VL: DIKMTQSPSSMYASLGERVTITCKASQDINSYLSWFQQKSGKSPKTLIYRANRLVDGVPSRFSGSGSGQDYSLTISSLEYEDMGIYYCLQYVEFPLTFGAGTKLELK | NO
405B8H3 mouse-human chimeric antibody (antibody, V domains shown, also called mAb103-405B8H3) VH: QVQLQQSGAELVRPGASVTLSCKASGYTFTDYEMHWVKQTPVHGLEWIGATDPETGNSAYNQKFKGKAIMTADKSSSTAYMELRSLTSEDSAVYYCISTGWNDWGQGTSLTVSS VL: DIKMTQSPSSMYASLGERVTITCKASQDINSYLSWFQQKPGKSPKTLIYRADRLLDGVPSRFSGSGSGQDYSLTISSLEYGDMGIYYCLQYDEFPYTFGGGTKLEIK | YES
409B11E12 mouse-human chimeric antibody (antibody, V domains shown, also called mAb104-409B11E12) VH: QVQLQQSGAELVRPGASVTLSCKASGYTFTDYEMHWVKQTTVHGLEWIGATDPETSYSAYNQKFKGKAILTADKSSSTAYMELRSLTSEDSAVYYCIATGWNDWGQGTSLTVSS VL: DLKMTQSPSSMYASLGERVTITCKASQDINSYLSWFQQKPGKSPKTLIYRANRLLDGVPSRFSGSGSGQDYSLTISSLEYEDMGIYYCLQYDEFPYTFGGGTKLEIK | YES
409D4E10 mouse-human chimeric antibody (antibody, V domains shown, also called mAb112-409D4E10) VH: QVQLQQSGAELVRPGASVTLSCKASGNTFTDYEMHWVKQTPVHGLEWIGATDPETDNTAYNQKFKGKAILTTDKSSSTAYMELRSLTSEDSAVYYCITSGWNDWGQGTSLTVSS VL: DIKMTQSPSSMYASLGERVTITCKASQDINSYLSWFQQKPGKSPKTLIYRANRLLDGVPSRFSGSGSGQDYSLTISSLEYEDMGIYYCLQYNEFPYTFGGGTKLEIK | YES
556F6B8 mouse-human chimeric antibody (antibody, V domains shown, also called mAb123-556F6B8; 556F8B8) VH: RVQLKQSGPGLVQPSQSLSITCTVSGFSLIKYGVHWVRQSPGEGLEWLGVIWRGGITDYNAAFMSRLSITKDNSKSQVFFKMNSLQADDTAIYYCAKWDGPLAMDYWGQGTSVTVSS VL: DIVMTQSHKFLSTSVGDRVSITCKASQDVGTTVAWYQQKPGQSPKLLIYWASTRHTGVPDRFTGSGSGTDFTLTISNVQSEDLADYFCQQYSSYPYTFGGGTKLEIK | YES

Ref: patent US20210155689A1
